- test-target: RSV F on RSV subtype A virus (mKate-RSV A2) (respiratory syncytial virus A2, UniProt P03420 26-574)
- procedure-text: cell-based or functional assay
endpoint-label: Neut IC50 subtype A (µg/mL)

{"columns": ["binder", "endpoint-label", "numeric-value"],
 "data": [
  ["ADI-24839 (antibody, V domains shown, full-length IgG) VH: EVQLVESGGGLVKPGGSLRLSCAASGFTFSSYSMNWVRQAPGKGLEWVSSISSSSSYIYYADSVKGRFTISRDNAKNSLYLQMNSLRAEDTAVYYCARVLVATAYGNAFDIWGQGTMVTVSS VL: QSVLTQPPSVSGAPGQRVTISCTGSSSNIGAGYDVHWYQQLPGTAPKLLIYGNSNRPSGVPDRFSGSKSGTSASLAITGLQAEDEADYYCQSYDSSLTVVFGGGTKLTVL", "Neut IC50 subtype A", 0.44],
  ["ADI-24814 (antibody, V domains shown, full-length IgG) VH: EVQLLESGGGVVQPGRSLRLSCAASGFTFNSYTMHWVRQAPGKGLEWVAVISYDGSNKYYADSVKGRFTISRDNSKNTLYLQMNSLRAEDTAVYYCARGRPYDFWSGYYTDYYYYMDVWGKGTTVTVSS VL: EIVLTQSPGTLSLSPGERATLSCRASQSVYSNYLAWYQQKPGQAPRLLIYGASSRATGIPDRFSGSGSGTDFTLTISRLEPEDFAVYYCQQCGSSWTFGQGTKVEIK", "Neut IC50 subtype A", 0.73],
  ["ADI-14336 (antibody, V domains shown, full-length IgG; also called Ab 4) VH: EVQLLESGGEVKKPGASVKVSCKASGYTFTNYGISWVRQAPGQGLEWMGWISAYNGNTNYAQKLQGRVTMTTDTSTSTAYMEVRRLRSDDTAVYYCAREPPVIAAGDFQHWGQGTLVTVSS VL: DIVMTQTPLSLPVTLGQPASISCRSSQSLVHSDTNIYLSWFQQRPGQSPRRLIYKVSNRDSGVPDRFSGSGSGTDFTLRISRVEAEDVGVYYCMQGTHWPPDFGQGTRLEIK", "Neut IC50 subtype A", 0.07],
  ["ADI-19421 (antibody, V domains shown, full-length IgG) VH: EVQLLESGGGVVQPGRSLRLSCAASGFTFSSYGMHWVRQAPGKGLEWVAVISYDGSNKYYADSVKGRFTISRDNSKNTLYLQMNSLRAEDTAVYYCAKDIHHVLRFLDPDYWGQGTLVTVSS VL: QSVLIQPASVSGFPGQSITISCTGTSSDVGGYNYVSWYQQHPGKAPKLMIYEVSNRPSGVSNRFSGSKSGNTASLTISGLQAEDEADYYCSSYTSSSTLVFGGGTKLTVL", "Neut IC50 subtype A", 10],
  ["ADI-24835 (antibody, V domains shown, full-length IgG) VH: EVQLVESGGGLVKPGGSLRLSCAASGFPFSTSSMNWVRQAPGKGLEWVSSISSSSSYIDYADSVKGRFTISRDNAKNSLYLQMNSLRAGDTAVYYCARVPRSDWYYFDYWGQGTLVTVSS VL: QSVVTQPPSVSGAPGQRVTISCTGSSSNIGAGYDVHWYQQLPGTAPKFLIYDNKYRPSGVPDRFSGSKSGTSASLAITGLQAEDEADYYCQSYDSSLSGYVFGTGTKLTVL", "Neut IC50 subtype A", 0.63],
  ["ADI-24857 (antibody, V domains shown, full-length IgG) VH: EVQLLESGGGLVKPGGSLRLSCAASGFTFSSYSMNWVRQAPGKGLEWVSSISSSSSYIYYADSVKGRFTISRDNAKNSLYLQMNSLRAEDTAVYYCAREGYYYGSGSYLDYWGQGTLVTVSS VL: QSVVTQPPSVSGAPGQRVTISCTGSSSNIGAGYDVHWYQQLPGTAPKLLIYGNSNRPSGVPDRFSGSKSGTSASLAITGLQAEDEADYYCQSYDSSLSVVFGGGTKLTVL", "Neut IC50 subtype A", 0.18],
  ["ADI-25480 (antibody, V domains shown, full-length IgG; also called Ab 430) VH: EVQLVESGGGLVKPGGSLRLSCAASGFTFSSYSMNWVRQAPGKGLEWVSSISSSSSYIYYADSVKGRFTISRDNAKNSLYLQMNSLRAEDTAVYYCARGGYSYGAYYYYYMDVWGKGTTVTVSS VL: QSVLTQPPSVSGAPGQRVTISCTGSSSNIGAGYDVHWYQQLPGTAPKLLIYGNSNRPSGVPDRFSGSKSGTSASLAITGLQAEDEADYYCQSYDSSLSGYWVFGGGTKVTVL", "Neut IC50 subtype A", 0.17],
  ["ADI-25524 (antibody, V domains shown, full-length IgG) VH: EVQLLESGGGLVKPGGSLRLSCAASGFTFSSYSMNWVRQAPGKGLEWVSSISSSSSYIYYADSVKGRFTISRDNAKNSLYLQMNSLRAEDTAVYYCAREWSPIVVVTNAFDIWGQGTMVTVSS VL: QSVLTQPPSVSGAPGQRVTISCTGSSSNIGAGYDVHWYQQLPGTAPKLLIYGNSNRPSGVPDRFSGSKSGTSASLAITGLQAEDEADYYCQSYDSSLSGWVFGGGTKVTVL", "Neut IC50 subtype A", 1.77],
  ["ADI-24831 (antibody, V domains shown, full-length IgG; also called Ab 393) VH: QVQLVESGGGLVKPGGSLRLSCAASGFTFSSYSMNWVRQAPGKGLEWVSSISSSSSYIYYADSVKGRFTISRDNAKNSLYLQMNSLRAEDTAVYYCARVPSDFWSGYYNDYWGQGTLVTVSS VL: QSVLTQPPSVSGAPGQRVTISCTGSSSNIGAGYDVHWYQQLPGTAPKLLIYGNSNRPSGVPDRFSGSKSGTSASLAITGLQAEDEADYYCQSYDSSLSGSWVFGGGTKLTVL", "Neut IC50 subtype A", 0.21],
  ["ADI-24819 (antibody, V domains shown, full-length IgG) VH: EVQLLESGGGLVKPGGSLRLSCAASGFTFSSYSMNWVRQAPGKGLEWVSSISSSSSYIYYADSVKGRFTISRDNAKNSLYLQMNSLRAEDTAVYYCARESGSGWYYFDYWGQGTLVTVSS VL: QSVLTQPPSVSGAPGQRVTISCTGSSSNIGAGYDVHWYQQLPGTAPKLLIYGNSNRPSGVPDRFSGSKSGTSASLAITGLQAEDEADYYCQSYDGSLSGVFGGGTKVTVL", "Neut IC50 subtype A", 4.33]
]}
